Biological target: HPPD SEQ ID NO:16 (Avena sativa, UniProt A0ACD5V6K6, DEL109-109/Q298G)
Sequence (A0ACD5V6K6 entry or part of it DEL109-109/Q298G): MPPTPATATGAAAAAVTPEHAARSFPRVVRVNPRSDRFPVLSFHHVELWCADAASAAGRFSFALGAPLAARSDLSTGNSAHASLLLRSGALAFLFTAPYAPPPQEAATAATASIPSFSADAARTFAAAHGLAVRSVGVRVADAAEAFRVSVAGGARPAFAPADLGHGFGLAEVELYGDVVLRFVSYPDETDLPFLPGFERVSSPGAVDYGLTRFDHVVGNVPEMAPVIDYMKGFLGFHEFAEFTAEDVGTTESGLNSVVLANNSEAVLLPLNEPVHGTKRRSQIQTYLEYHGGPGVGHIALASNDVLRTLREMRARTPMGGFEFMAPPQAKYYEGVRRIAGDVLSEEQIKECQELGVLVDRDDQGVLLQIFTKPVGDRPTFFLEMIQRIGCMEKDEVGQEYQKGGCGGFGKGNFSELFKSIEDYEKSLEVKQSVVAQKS
Test: biochemical
endpoint: Kd (nM)
Hi! Could you send only the number? It should be in nM, unit omitted.

Tell me its Kd given COCCOCc1nc(C(F)(F)F)ccc1C(=O)C1C(=O)C2CCC(C2)C1=O (stereo not shown) as the entry.
26.7

###

Measured pKd by item
Target: HPPD SEQ ID NO:14 (Avena sativa, UniProt A0ACD5V6K6, DEL109-109)
Sequence (A0ACD5V6K6 entry or part of it DEL109-109): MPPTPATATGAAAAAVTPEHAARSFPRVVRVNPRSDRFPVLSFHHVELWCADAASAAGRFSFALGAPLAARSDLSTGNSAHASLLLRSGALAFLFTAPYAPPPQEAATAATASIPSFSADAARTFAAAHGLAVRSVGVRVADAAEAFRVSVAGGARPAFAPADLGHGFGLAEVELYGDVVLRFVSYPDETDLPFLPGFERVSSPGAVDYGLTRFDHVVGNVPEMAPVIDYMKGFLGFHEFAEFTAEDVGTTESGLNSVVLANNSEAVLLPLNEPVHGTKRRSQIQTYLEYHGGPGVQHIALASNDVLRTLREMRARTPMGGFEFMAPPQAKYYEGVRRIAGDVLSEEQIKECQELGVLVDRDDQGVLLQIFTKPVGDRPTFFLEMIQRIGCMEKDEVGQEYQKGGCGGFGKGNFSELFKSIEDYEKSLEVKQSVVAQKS
Assay: biochemical
Assay type: binding
Conditions: Kd, estimated from on and off rates, 25° C.
Convention used: pKd is expressed as -log10 of the molar concentration.

Some solved cases for reference:
compound: CCOc1c(S(C)(=O)=O)ccc(C(=O)C2C(=O)CC(C)CC2=O)c1Cl (stereo not drawn)
recorded value: 9.71
--
compound: CS(=O)(=O)c1cc(C(F)(F)F)ccc1C(=O)C(C#N)C(=O)C1CC1 (stereo not drawn)
recorded value: 8.91

# evaluate next
State its pKd: COCCOCc1nc(C(F)(F)F)ccc1C(=O)C1C(=O)C2CCC(C2)C1=O (stereo not drawn)
8.03

###

Biological target: HPPD SEQ ID NO:19 (Avena sativa, UniProt A0ACD5V6K6, DEL109-109/I285A)
Sequence (A0ACD5V6K6 entry or part of it DEL109-109/I285A): as the sequence (A0ACD5V6K6 entry or part of it DEL109-109/Q298G) above, with I284A, G297Q counted along it
Assay: biochemical
endpoint: Kd
Don't forget the unit after the value.

Quote Kd reported for COCCOCc1nc(C(F)(F)F)ccc1C(=O)C1C(=O)C2CCC(C2)C1=O (stereo not shown) [Structure C] please.
8.9 nM

###

Kd for assorted molecules
Target: HPPD SEQ ID NO:22 (Avena sativa, UniProt A0ACD5V6K6, DEL109-109/L256M)
Sequence (A0ACD5V6K6 entry or part of it DEL109-109/L256M): as the sequence (A0ACD5V6K6 entry or part of it DEL109-109/Q298G) above, with L255M, G297Q counted along it
Test: biochemical
Protocol: On rates (governed by an association rate constant, kon) for the formation of the enzyme: inhibitor complexes, EI and off rates (governed by a dissociation rate constant, koff) were determined by methods known in the art and essentially as described in Hawkes et al. (2001) Proc. Bright. Crop. Prot. Conf. Weeds, 2:563-568 and in PCT Patent App. Pub. No. WO 02/46387). […]
# unit: nM | format: bare number

molecule: CCOc1c(S(C)(=O)=O)ccc(C(=O)C2C(=O)CC(C)CC2=O)c1Cl (centres unmarked)
tgt: HPPD SEQ ID NO:22 (Avena sativa, UniProt A0ACD5V6K6, DEL109-109/L256M)
recorded value: 0.13

// below: Kd requested for another molecule
Hello, please tell me recorded Kd for this one: COCCOCc1nc(C(F)(F)F)ccc1C(=O)C1C(=O)C2CCC(C2)C1=O (centres unmarked)
23.9

###

Molecular target: HPPD SEQ ID NO:20 (Avena sativa, UniProt A0ACD5V6K6, DEL109-109/I285S)
Sequence (A0ACD5V6K6 entry or part of it DEL109-109/I285S): as the sequence (A0ACD5V6K6 entry or part of it DEL109-109/Q298G) above, with I284S, G297Q counted along it
Assay: biochemical
endpoint: Kd

Answer with reported Kd of COCCOCc1nc(C(F)(F)F)ccc1C(=O)C1C(=O)C2CCC(C2)C1=O (stereo not shown) [Structure C]
6.6 nM

###

Target: HPPD SEQ ID NO:18 (Avena sativa, UniProt A0ACD5V6K6, DEL109-109/I285T)
Sequence (A0ACD5V6K6 entry or part of it DEL109-109/I285T): as the sequence (A0ACD5V6K6 entry or part of it DEL109-109) above, with I284T counted along it
Test: biochemical
endpoint: Kd (nM)
# value in nM; strip the unit string

molecule: COCCOCc1nc(C(F)(F)F)ccc1C(=O)C1C(=O)C2CCC(C2)C1=O (centres unmarked)
endpoint: Kd
recorded value: 11.9

Fill in: Kd on HPPD SEQ ID NO:18 (Avena sativa, UniProt A0ACD5V6K6, DEL109-109/I285T), entry CCOc1c(S(C)(=O)=O)ccc(C(=O)C2C(=O)CC(C)CC2=O)c1Cl (centres unmarked)
0.4
